- Tested on: PBMC
- procedure_summary: Cytotoxicity against human PBMC cells at 50 ug/mL after 24 hrs by MTT assay relative to DMSO-treated control
- Assay type: cell-based
measurement_kind: Activity

compound	target_of_assay	Activity
CCOC(=O)NCCCCN1c2ccc(Cl)cc2Sc2cc3ccccc3nc21	PBMC	Non-toxic
CCOC(=O)NCCCN1c2ccc(SC)cc2Sc2cc3ccccc3nc21	PBMC	Non-toxic
CN1CCCCC1CCN1c2ccccc2Sc2cc3ccccc3nc21 (centres undefined)	PBMC	4.5%
CCOC(=O)NCCCCN1c2ccccc2Sc2cc3ccccc3nc21	PBMC	Non-toxic

Batch lookup, Activity per entry.
1. CSc1ccc2c(c1)Sc1cc3ccccc3nc1N2CCCNS(=O)(=O)c1ccc(C)cc1
2. O=C(NCCCl)NCCCN1c2ccc(Cl)cc2Sc2cc3ccccc3nc21
3. O=C(NCCCl)NCCCCN1c2ccccc2Sc2cc3ccccc3nc21
4. CS(=O)(=O)NCCCN1c2ccccc2Sc2cc3ccccc3nc21
5. CCOC(=O)NCCCN1c2ccc(Cl)cc2Sc2cc3ccccc3nc21
6. Brc1cccc2c1Sc1cc3ccccc3nc1N2
7. Cc1ccc(S(=O)(=O)NCCCCN2c3ccccc3Sc3cc4ccccc4nc32)cc1
8. O=C(NCCCl)NCCCCN1c2ccc(Cl)cc2Sc2cc3ccccc3nc21

Solution:
["Non-toxic", "89.5%", "Non-toxic", "Non-toxic", "Non-toxic", "Non-toxic", "Non-toxic", "86.3%"]

Batch lookup, Activity per entry.
1. Brc1ccc2c(c1)Sc1cc3ccccc3nc1N2
2. Clc1ccc2c(c1)Sc1cc3ccccc3nc1N2
3. Clc1ccc2c(c1)Nc1nc3ccccc3cc1S2
4. Cc1ccc(S(=O)(=O)NCCCCN2c3ccc(Cl)cc3Sc3cc4ccccc4nc32)cc1
5. Cc1ccc(S(=O)(=O)NCCCN2c3ccccc3Sc3cc4ccccc4nc32)cc1
6. Brc1ccc2c(c1)Nc1nc3ccccc3cc1S2
7. FC(F)(F)c1ccc2c(c1)Nc1nc3ccccc3cc1S2
8. c1ccc2c(c1)Nc1nc3ccccc3cc1S2

Solution:
["Non-toxic", "Non-toxic", "Non-toxic", "Non-toxic", "Non-toxic", "Non-toxic", "21.5%", "Non-toxic"]

Batch lookup, Activity per entry.
1. FC(F)(F)c1ccc2c(c1)Sc1cc3ccccc3nc1N2
2. CCOC(=O)NCCCN1c2ccccc2Sc2cc3ccccc3nc21
3. CC(=O)NCCCCN1c2ccc(Cl)cc2Sc2cc3ccccc3nc21
4. CSc1ccc2c(c1)Sc1cc3ccccc3nc1N2CCCCNS(C)(=O)=O

Solution:
Non-toxic
Non-toxic
Non-toxic
Non-toxic
